- Test system: VERO cells
- test-name: Cell viability assay (MTT), VERO
- Assay type: cell-based, Cercopithecus aethiops
- details: 31.2 µg/ml, 24 h
recorded-metric: Viability VERO (%)
Form entry: value (%) — number only.

Example results:
C/C(=N\Nc1nc(-c2cc3ccccc3oc2=O)cs1)c1ccc(Nc2nc(N)nc(N)n2)cc1 | 117.52
CC(=O)Nc1ccc(-c2csc(N/N=C(\C)c3ccc(Nc4nc(N)nc(N)n4)cc3)n2)cc1 | 98.96
C/C(=N\Nc1nc(-c2ccc3[nH]c(=O)oc3c2)cs1)c1ccc(Nc2nc(N)nc(N)n2)cc1 | 95.40

We next turn to a different molecule, shown below.
Measured Viability VERO of "C/C(=N\Nc1nc(-c2ccc(NS(C)(=O)=O)cc2)cs1)c1ccc(Nc2nc(N)nc(N)n2)cc1" : 96.22
